src = ChEMBL document CHEMBL4513216

Reported cytotoxicity at 10 µM by item:
- Protocol text: Toxicity liver stage against HepG2, at 10uM
- Assay type: cell-based
- Parameters: test concentration 10 uM, cell line HepG2-A16-CD81EGFP
- Setup conditions: human, HepG2-A16-CD81EGFP cells; read-out: INHIBITION
Answer with the figure and its unit, nothing else.

// below: answered compounds
COCCOc1cccc(CNCc2ccc(-n3cncn3)nc2)c1 = -11.8%
O[C@@H]1C[C@@H](c2nc(-c3ccc(OC(F)(F)F)cc3)no2)N(CC2CC2)C1 = 1.32%
COc1cc(N2C[C@H](C(=O)NCC3CC3)[C@@H]3CCO[C@@H]3C2)ncn1 = 2.87%
OCCn1cc(CN2CCN(CCOc3cccc(F)c3)CC2)cn1 = -10.9%

Now consider a different compound.
Ask | Can you look up the measured cytotoxicity at 10 µM of "CC(=O)c1cnc(N(C)Cc2cnc3ccccc3n2)nc1C" for me?
Reply | 2.4%

====

- Protocol text: Toxicity liver stage against HepG2, at 10uM
- Format: cell-based
- Design: test concentration 10 uM, cell line HepG2-A16-CD81EGFP
- Setup conditions: human, HepG2-A16-CD81EGFP cells; read-out: INHIBITION
Endpoint: cytotoxicity at 10 µM (%)
All answers are understood in %, so give the number only.

Field: example entries. Status: answers known.
CN1CCN(C(=O)C[C@@H]2COC[C@H]3CN(c4ccncn4)C[C@@H]23)CC1 = -134
O=C(CC1CC1)N1CCC(O)(CN2CCN(c3ccccc3)CC2)C1 (stereo not drawn) = -11.2
O=C(c1cc2c([nH]c1=O)CCC2)N1CCCC1c1cccnc1 (stereo not drawn) = -5.79
CC(C)CNC(=O)C1=NOC2(CCN(Cc3ccc(C(C)C)cc3)C2)C1 (stereo not drawn) = 32.3
COc1ccc(C(C(=O)O)N2CCC(O)(c3cccnc3)CC2)cc1F (stereo not drawn) = 50.8
O=C(c1ccc2[nH]ccc2c1)N1CCn2cnc(COCC3CC3)c2C1 = 5.22
Cc1cccc(N2CCN(CC(=O)N3CCCC(N(C)C)CC3)CC2)c1 (stereo not drawn) = -3.73
O=C(c1ccc(F)cc1)N(CCCO)S(=O)(=O)c1cccs1 = -6.24
Cc1nnc(CN(C)CCCOc2cccc(Cl)c2)o1 = 2.51
CN1CCCN(Cc2nc(Cc3ccccc3)n[nH]2)CC1 = -7.47

Ask | Reported cytotoxicity at 10 µM, molecule "CCOC(=O)C1CCN(C(=O)c2cc(OCC)c3ccoc3c2)CC1" : ____
Reply | 34.4

Ask | Do the same for Nc1cc(-c2c[nH]nc2C2CCCCN2C(=O)C2CCCC2)ccn1 (stereo not drawn) please
Reply | 12

Ask | Try the molecule "COc1c[nH]c(C(=O)Nc2nc(C(C)(C)C)cs2)cc1=O"
Reply | -49.6

Ask | Then this molecule: OC(CNCCn1cccn1)c1ccc(F)c(F)c1 (stereo not drawn)
Reply | 2.05

Ask | Subsequent entry: "Cc1ccc2cnn(CCC(=O)NCc3c(C)nn(C)c3C)c2c1"
Reply | -8.19

Ask | Proceed to "COc1ccc(-c2cc3cccn(CC(=O)N4CCOCC4)c-3n2)cc1"
Reply | -7.26

Ask | Cool, now "CC(C)c1nn(C)c(N(C)C)c1CNCc1ccc2c(c1)OCCO2"
Reply | -12.6

Ask | Now consider CSCCC(=O)N1CCCC1c1ccsc1 (stereo not drawn) .
Reply | -20.3

Ask | One more molecule: "CC(C)N1CCC2(CC1)C(=O)N(c1cccnc1)c1c(F)cccc12"
Reply | 7.13

Ask | Likewise for "CCc1nnc(CN(C)CC2CCCCC2)o1" ?
Reply | 0.897

====

- Protocol text: Toxicity liver stage against HepG2, at 10uM
- Assay type: cell-based
- Set-up: test concentration 10 uM, cell line HepG2-A16-CD81EGFP
- Setup conditions: human, HepG2-A16-CD81EGFP cells; read-out: INHIBITION
Endpoint: cytotoxicity at 10 µM (%)
Your answer should be a plain number; it is taken to be in %.

Look over these answered cases.
O=C(Cc1cccs1)NC1CCN(c2cccc(F)c2)CC1 = -24.2
CNc1nc(C)c(C(=O)N2C[C@@H]3CC[C@H]2CN(c2cnccn2)C3)s1 = 13.6
Cc1ccc(CN2CCc3ncnc(OC(C)C)c3CC2)s1 = 22.8
Cc1cccc(NC(=O)N2CCn3cnc(COCC4CC4)c3C2)c1 = 3.83
CCC(O)CN1CCN(C(=O)Cc2ccccc2Cl)CC1 (stereo unspecified) = -7.98

Ask | Fill blank: measured cytotoxicity at 10 µM of the compound "COCCC(=O)N1Cc2cnc(Cc3ccc(OC)cc3)nc2C1" is ____.
Reply | -0.641

====

- Protocol text: Toxicity liver stage against HepG2, at 10uM
- Type: cell-based
- Parameters: test concentration 10 uM, cell line HepG2-A16-CD81EGFP
- Setup conditions: human, HepG2-A16-CD81EGFP cells; read-out: INHIBITION
Quick reference: cytotoxicity at 10 µM of the listed items.

Guide cases for cytotoxicity at 10 µM, answers given:
CC(O)CN1CCN(Cc2coc(-c3cccc(Cl)c3)n2)CC1 (stereo unspecified) = -4.73%
O=C(c1ccncc1)N1CCC2(COc3ncccc3S(=O)(=O)N2)C1 (stereo unspecified) = 9.62%
COc1ccccc1NC(=O)NCc1nnc(SC)n1C = -0.145%
CS(=O)(=O)CCC(=O)NC1(c2cccc(C(F)(F)F)c2)CCC1 = -40.1%

Ask | # lookup: cytotoxicity at 10 µM of "COc1ccc(CN2CCN(S(=O)(=O)c3cc(C(=O)O)cs3)CC2)cc1"
Reply | 2.03%

Ask | How about this compound: "CC(C)(C)S(=O)(=O)CCNC(=O)c1cnc(-c2ccccc2)nc1"
Reply | 2.92%

====

- Protocol text: Toxicity liver stage against HepG2, at 10uM
- Assay type: cell-based
- Design: test concentration 10 uM, cell line HepG2-A16-CD81EGFP
- Setup conditions: human, HepG2-A16-CD81EGFP cells; read-out: INHIBITION
# cytotoxicity at 10 µM per entry
Answer with a number only, understood to be in %.

// below: answered molecules
CCc1cc(CNC(=O)NCc2ccc(N3CCCCC3)cc2)on1 = 1.27
CC(C)CN1CCS(=O)(=O)[C@@H]2CCN(S(=O)(=O)N(C)C)CC[C@@H]21 = 7.25
Cc1nc(NCCc2ccc(Cl)cc2)cc(C(=O)N2CCCCC2)n1 = -23
COCCOc1ncccc1C(=O)N1CCCC(n2ccnc2C)C1 (configuration not stated) = -7.52
COC1CCN(C(=O)CC2CCCC2)CC(=O)N(C)c2ccccc21 (configuration not stated) = -3.09
Cc1noc(C)c1CN(C)C(=O)Cn1c(=O)n(C)c2ccccc21 = -4.32

Ask | // cytotoxicity at 10 µM lookup, key: CNS(=O)(=O)CC1CCCN1C(=O)c1ccc(C)c(C)c1 (configuration not stated)
Reply | -6.93

Ask | Quick one: "Cc1nc(N(CCC(N)=O)Cc2ccccc2)c2nc(C)oc2n1"
Reply | -3.86

Ask | Then what about the molecule "CC(C)Cc1noc(CNc2ccccc2CC(=O)N(C)C)n1" ?
Reply | 0.489

Ask | Entry "COc1cccc(-c2n[nH]cc2-c2nc(CN3CCCC3)no2)c1" please
Reply | -23.2

Ask | Try Fc1cccc(C(NCc2ncc[nH]2)c2ccccc2)c1 (configuration not stated) next.
Reply | 1.35

Ask | Lookup COc1ccc(C(=O)N2CCCC(n3nc(C)nc3C)C2)c(OC)c1 (configuration not stated)
Reply | -18.2

Ask | Okay, and "CCn1c(C)cc(-c2csc(Cn3ccc(=O)[nH]c3=O)n2)c1C" ?
Reply | 10.2

Ask | Quick one: CC(NC1CCN(CCS(C)(=O)=O)CC1)c1cnn(C(C)C)c1 (configuration not stated)
Reply | -0.132

Ask | Moving on to the next molecule: "CCn1cc(CN2CCCN(C(=O)c3ccc(C#N)cc3)CC2)cn1"
Reply | 1.8

Ask | Then what about the molecule "COc1ccccc1OC1CCN(Cc2cnc(N(C)C)nc2)CC1" ?
Reply | -10.9

Ask | Try this molecule next: CNc1cccc(C2CCCN(C(=O)c3cscn3)C2)n1 (configuration not stated)
Reply | -11.3

Ask | Same thing, different molecule: CC(c1ccco1)N(C)Cc1nc2c(cnn2C)c(=O)[nH]1 (configuration not stated)
Reply | -3.29

Ask | What do you get for "CCN1CCN(c2ncc(-c3cc(C)no3)c(-c3ccco3)n2)CC1" ?
Reply | -11

Ask | Item: "CCc1nsc(N2CCCN(C(=O)c3ccc(CC)o3)CC2)n1"
Reply | 7.76

Ask | Can you handle CC(C)CC1SCC(=O)Nc2c1cnn2C1CCCC1 (configuration not stated) next?
Reply | -2.17

Ask | Entry to check: "O=C1CO[C@H]2CN(S(=O)(=O)c3ccccc3)C[C@H]2N1Cc1ccccn1"
Reply | -1.11

Ask | Then what about the molecule CCCc1n[nH]c(C2CN(C(=O)c3cccc4cn[nH]c34)CCO2)n1 (configuration not stated) ?
Reply | -4.81

Ask | Try CCOCC(O)CN1CCN(C(=O)c2ccc3c(c2)COC3)CC1 (configuration not stated) next.
Reply | -0.0716

Ask | Now consider "COCCN1CC[C@@H]2OC[C@H](C(=O)NCc3cccs3)C[C@@H]2C1" and answer again.
Reply | 2.7

Ask | Ok, now "COC[C@@H]1CCC[C@]12CN(Cc1cccc(C)n1)CCO2"
Reply | 5.53

Ask | Now consider CSC1(CNC(=O)NC(C)Cc2cccc(F)c2)CCOCC1 (configuration not stated) .
Reply | -15.6

Ask | Further, for "O=C(CN1CCN(C(=O)c2sccc2C2CC2)CC1)NC1CC1" ?
Reply | -3.75
